Data origin: ChEMBL document CHEMBL4673175

Below: a set of entries, each annotated with reported IC50.
system: Plasmodium falciparum; assay: Antiplasmodial activity against chloroquine-sensitive/mefloquine resistant early ring stage Plasmodium falciparum 3D7 by whole-cell SYBR Green I based assay; assay type: functional, organism-based
recorded.endpoint: IC50 (nM)

- compound: "Cn1nnnc1NCC1CCC2(CC1)OOC1(O2)C2CC3CC(C2)CC1C3 (stereo not drawn)"
  readout.number: 0.3
- compound: "c1ccc(-n2nnnc2OCC2CCC3(CC2)OOC2(O3)C3CC4CC(C3)CC2C4)cc1 (stereo not drawn)"
  readout.number: 0.3
- compound: "Cn1nnnc1NCC1CCC2(CC1)OOC1(OO2)C2CC3CC(C2)CC1C3 (stereo not drawn)"
  readout.number: 0.3
